- target.of.assay: MEK
- protocol: Cascade assay for inhibitors of the MAP kinase pathway (In Vitro)
Classify: YES when IC50 is strictly less than 400 nM; NO when IC50 is not.

Query block: For Cc1cc(I)ccc1Nc1cccc(Cl)c1C(=O)O , is the recorded IC50 below the cut-off of 400 nM?
Result block: NO

Query block: For Cc1cc(I)ccc1Nc1cc(F)ccc1CO , is the recorded IC50 below the cut-off of 400 nM?
Result block: NO

Query block: For Cc1cc(I)ccc1Nc1ccc(F)cc1C(=O)O , is the recorded IC50 below the cut-off of 400 nM?
Result block: NO

Next:
Query block: For Cc1cc(I)ccc1Nc1ccc(Cl)cc1C(=O)NCCO [Example 187] , is the recorded IC50 below the cut-off of 400 nM?
Result block: NO

Query block: For Cc1cc(I)ccc1Nc1ccc(I)cc1C(=O)NCCO , is the recorded IC50 below the cut-off of 400 nM?
Result block: NO

Query block: For O=C(O)c1ccc(F)cc1Nc1ccc(I)cc1Br , is the recorded IC50 below the cut-off of 400 nM?
Result block: NO

Query block: For Cc1cc(I)ccc1Nc1ccc(F)cc1C(=O)N(C)c1ccccc1 , is the recorded IC50 below the cut-off of 400 nM?
Result block: NO

Query block: For Cc1cc(I)ccc1Nc1cc(F)ccc1C(=O)O , is the recorded IC50 below the cut-off of 400 nM?
Result block: YES

Query block: For COc1ccc(NC(=O)c2ccc(OC)c([N+](=O)[O-])c2)cc1 , is the recorded IC50 below the cut-off of 400 nM?
Result block: YES
